- experiment.notes: qHTS assay to identify small molecule agonists of the sonic hedgehog signaling (Shh) pathway - cell viability counter screen (AID 1259366); note: nearly all actives have a fitted effect of over 50% in size
- test.context: NIH/3T3 Gli1-Luc viability, CellTiter-Fluor, 24 h; series mostly up to 92.4 µM
Records with an inconclusive call do not appear. Activity calls are given as the source filed them. Calls come from the whole dose curve; as a rule, active = well fitted cell-killing curve with a large enough effect in the repeat runs; inconclusive = weak or mixed curves, or effect the other way; inactive = flat fitted curve, though single readings scatter.
Can you answer with just one of these options? active, inactive

[
  {
    "cpd.smiles": "O=S(=O)(O)F",
    "label.value": "inactive"
  },
  {
    "cpd.smiles": "O=[N+]([O-])C(Br)Br",
    "label.value": "inactive"
  },
  {
    "cpd.smiles": "Brc1cccc(-c2ccccc2)c1",
    "label.value": "inactive"
  }
]

Record request — test call for `O=C(N[C@@H]1N=C(c2ccccc2F)c2cccc3c2N(CC3)C1=O)c1cc2ccccc2[nH]1`
inactive

Record request — test call for `c1ccc(N=NNc2ccccc2)cc1`
inactive

Record request — test call for `CCOC(=O)CCN(SN(C)C(=O)Oc1cccc2c1OC(C)(C)C2)C(C)C`
inactive

Source listed as PubChem BioAssay (Tox21).
